The measurements presented in this section are drawn from patent US20260297085A1.

- target_or_test_system: human JAK3 kinase domain (JH1) (Homo sapiens, UniProt P52333)
- Construct: recombinantly generated catalytic kinase (also known as JH1) domain of human JAK1, JAK2, JAK3 and TYK2
- Sequence (P52333 822-1111 limits assumed): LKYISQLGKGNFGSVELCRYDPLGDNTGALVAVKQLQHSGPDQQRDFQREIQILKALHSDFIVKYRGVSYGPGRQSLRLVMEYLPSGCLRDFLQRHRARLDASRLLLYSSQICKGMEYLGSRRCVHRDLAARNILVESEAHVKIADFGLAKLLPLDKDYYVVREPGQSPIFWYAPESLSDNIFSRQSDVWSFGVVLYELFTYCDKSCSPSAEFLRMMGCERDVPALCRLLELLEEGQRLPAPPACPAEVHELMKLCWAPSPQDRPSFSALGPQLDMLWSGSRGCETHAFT
- assay_comment: JH1 biochemical assay for JAK3 (ADP-Glo kinase assay, recombinant JH1 catalytic domain, JAK3-974 peptide, 4 μM ATP)
- cond: JH1 kinase domain, ADP-Glo
pIC50: −log10 of the molar value. Where a name gives a salt, the structure may show the parent alone.
assay_readout: pIC50

[Q] Record request: pIC50 value, item "C[C@@H]1CN(c2ccnn3cc(-c4ccc5c(cnn5C)c4)cc23)C(=O)[C@]1(C#N)C1CC1"
[A] 6.00 to 7.00

[Q] Dear colleague, I am looking for the recorded pIC50 of the following molecule: "C[C@H]1CN(c2ccnn3cc(-c4cnn(C)c4)cc23)C(=O)[C@]1(C#N)C1CC1"
[A] 5.30 to 6.00

[Q] May I ask what pIC50 has been recorded for C[C@@H]1CN(c2ccnn3cc(-c4nc5cnccc5s4)cc23)C(=O)[C@]1(C#N)C1CC1 [Example 102, trifluoroacetate] ?
[A] 6.00 to 7.00

[Q] I would be grateful if you could share the reported pIC50 for "C[C@@H]1CN(c2ccnn3cc(-c4cnn(C)c4)cc23)C(=O)[C@]1(C#N)C1COC1" .
[A] < 5.00

[Q] Need pIC50 of "COc1cc(-c2cc3c(N4CC[C@](C#N)(C5CC5)C4=O)ccnc3[nH]2)ccn1" , thanks.
[A] 5.30 to 6.00

[Q] Form field: reported pIC50 of "C[C@@H]1CN(c2ncnn3cc(-c4cnn(C)c4)cc23)C(=O)[C@]1(C#N)C1CC1"
[A] < 5.00

[Q] # get_value(readout='pIC50', item= "Cn1cc(-c2cc3c(N4CC[C@@](C#N)(C5CC5)C4=O)ccnc3[nH]2)cn1" )
[A] > 7.00

[Q] What value of pIC50 has been reported for the following molecule? "C[C@@H]1CN(c2ccnn3c(F)c(-c4cnn(C)c4)cc23)C(=O)[C@]1(C#N)C1CC1"
[A] < 5.00

[Q] For the molecule shown here, "C[C@@H]1CN(c2ccnn3cc(-c4cncn4C)cc23)C(=O)[C@]1(C#N)C1CC1" , give the reported pIC50.
[A] 5.30 to 6.00

[Q] Value lookup for pIC50; key = "COc1ncccc1-c1cc2c(N3C[C@@H](C)[C@@](C#N)(C4CC4)C3=O)ccnn2c1"
[A] 5.30 to 6.00

[Q] Would you mind telling me what pIC50 value was observed for "C[C@@H]1CN(c2ccnn3cc(-c4cnn(C5CC(F)(F)C5)c4)cc23)C(=O)[C@]1(C#N)C1CC1" ?
[A] > 7.00

[Q] What does the data say about its pIC50? Entry: "CC[C@@H]1CN(c2ccnn3cc(-c4cnn(C)c4)cc23)C(=O)[C@]1(C#N)C1CC1"
[A] 6.00 to 7.00

[Q] Find the recorded pIC50 belonging to "C[C@@H]1CN(c2nc(-c3cnn(C(F)F)c3)cn3nccc23)C(=O)[C@]1(C#N)C1CC1" and report it.
[A] > 7.00

[Q] What measured pIC50 goes with "Cc1ccc(-c2cc3c(N4C[C@@H](C)[C@@](C#N)(C5CC5)C4=O)ccnn3c2)cn1" ?
[A] 6.00 to 7.00

[Q] Which pIC50 is reported for this molecule? COc1cnc(-c2cc3c(N4C[C@@H](C)[C@@](C#N)(C5CC5)C4=O)ccnn3c2)nc1 [Example 136, trifluoroacetate]
[A] 5.30 to 6.00

[Q] Please give the measured pIC50 for this molecule: "C[C@@H]1CN(c2nc(-c3cnn(C(F)F)c3)cn3ncc(F)c23)C(=O)[C@]1(C#N)C1CC1"
[A] > 7.00

[Q] Would you mind telling me what pIC50 value was observed for C[C@@H]1CN(c2ccnn3cc(-c4ccc(CO)cn4)cc23)C(=O)[C@]1(C#N)C1CC1 [Example 150, trifluoroacetate] ?
[A] 6.00 to 7.00

[Q] Request the reported pIC50 associated with Cc1cnc(-c2cc3c(N4C[C@@H](C)[C@@](C#N)(C5CC5)C4=O)ccnn3c2)s1 [Example 118, trifluoroacetate]
[A] 6.00 to 7.00

[Q] Recorded pIC50 for Cn1cc(-c2cc3c(N4CC[C@@H](C5CC5)C4=O)ccnn3c2)cn1 (single isomer, unassigned) , please?
[A] 5.30 to 6.00

[Q] Recorded pIC50 for Cc1nc(-c2cc3c(N4C[C@@H](C)[C@@](C#N)(C5CC5)C4=O)ccnn3c2)ccc1C#N [Example 119, trifluoroacetate] , please?
[A] 6.00 to 7.00

[Q] Dear colleague, I am looking for the recorded pIC50 of the following molecule: C[C@@H]1CN(c2ccnn3cc(-c4cn5c(n4)CCC5)cc23)C(=O)[C@]1(C#N)C1CC1 [Example 106, trifluoroacetate]
[A] 6.00 to 7.00

[Q] Which pIC50 is reported for this molecule? "C[C@@H]1CN(c2ccnn3cc(-c4c[nH]c5ncccc45)cc23)C(=O)[C@]1(C#N)C1CC1"
[A] 6.00 to 7.00

[Q] GET /values?readout=pIC50&item= "COc1ccc(-c2cc3c(N4C[C@@H](C)[C@@](C#N)(C5CC5)C4=O)ccnn3c2)cn1"
[A] 6.00 to 7.00

[Q] Which measured pIC50 value corresponds to C[C@@H]1CN(c2ccnn3cc(-c4cccc5nccn45)cc23)C(=O)[C@]1(C#N)C1CC1 [Example 141, trifluoroacetate] ?
[A] 5.30 to 6.00

[Q] # query: pIC50 of entry "Cc1c(-c2cc3c(N4C[C@@H](C)[C@@](C#N)(C5CC5)C4=O)ccnn3c2)cnn1C"
[A] 6.00 to 7.00
